Taken from patent US20230233569A1.

- Tgt: NRAS WT (Homo sapiens, UniProt P01111+P62937)
- Sequence (P01111 whole entry): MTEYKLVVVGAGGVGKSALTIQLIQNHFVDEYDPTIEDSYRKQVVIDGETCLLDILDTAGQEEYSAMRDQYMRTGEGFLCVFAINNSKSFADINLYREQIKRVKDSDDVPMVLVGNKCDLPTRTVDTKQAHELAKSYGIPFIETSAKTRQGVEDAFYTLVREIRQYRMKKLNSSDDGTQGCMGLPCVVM
- Sequence (P62937 whole entry): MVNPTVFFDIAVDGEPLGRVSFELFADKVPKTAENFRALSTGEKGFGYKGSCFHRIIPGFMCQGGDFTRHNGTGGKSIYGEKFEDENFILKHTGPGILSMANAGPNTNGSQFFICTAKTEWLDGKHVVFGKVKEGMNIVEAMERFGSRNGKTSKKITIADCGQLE
- Assay Procedure: Disruption of BRAF RBD interaction with Ras (FRET / MOA assay, with Cyclophilin A)
- Type: biochemical
- Measurement Conditions: NRAS WT; read-out: NRAS WT FRET data IC50
Reported Property: IC50

>>> readout_value("CCn1c(-c2cccnc2[C@H](C)OC)c2c3cc(ccc31)-c1csc(n1)C[C@H](NC(=O)[C@H](C(C)C)N(C)C(=O)N1CCN(C(=O)CCN(C)C)CC1)C(=O)N1CCC[C@H](N1)C(=O)OCC(C)(C)C2 [Example A459]")
"10 to 100 nM"

# input Would you kindly share the measured IC50 for CCn1c(-c2cccnc2[C@H](C)OC)c2c3cc(ccc31)-c1csc(n1)C[C@H](NC(=O)[C@H](C1CCCC1)N(C)C(=O)N1CCN(C)CC1)C(=O)N1CCC[C@H](N1)C(=O)OCC(C)(C)C2 [Example A525] ?
# output 100 to 1000 nM

---

Readings of IC50 for the listed compounds
- Tgt: NRAS G12C (Homo sapiens, UniProt P01111+P62937, G12C)
- Sequence (P01111 whole entry G12C): as the sequence (P01111 whole entry) above, with G12C counted along it
- Sequence (P62937 whole entry): as the sequence (P62937 whole entry) above
- Assay Procedure: Disruption of BRAF RBD interaction with Ras (FRET / MOA assay, with Cyclophilin A)
- Assay type: biochemical
- Measurement Conditions: NRAS G12C; read-out: NRAS G12C FRET data IC50

# input Would you kindly share the measured IC50 for CCn1c(-c2cc(N3CCN(C)CC3)cnc2[C@H](C)OC)c2c3cc(ccc31)-c1csc(n1)C[C@H](NC(=O)[C@H](C1CCCC1)N(C)C(=O)N1CCC1)C(=O)N1CCC[C@H](N1)C(=O)OCC(C)(C)C2 (atropisomer, axis not shown) ?
# output 10 to 100 nM

# input Would you kindly share the measured IC50 for CCn1c(-c2cccnc2[C@H](C)OC)c2c3cc(ccc31)-c1csc(n1)C[C@H](NC(=O)[C@H](C(C)C)N(C)C(=O)N1C[C@H](OC)[C@@H](N)C1)C(=O)N1CCC[C@H](N1)C(=O)OCC(C)(C)C2 (atropisomer, axis not shown) ?
# output 100 to 1000 nM

# input Would you kindly share the measured IC50 for CCn1c(-c2cc(N3CCN(C)CC3)cnc2[C@H](C)OC)c2c3cc(ccc31)-c1csc(n1)C[C@H](NC(=O)[C@H](C(C)C)N(C)C(=O)[C@@H]1OCC[C@@H]1c1ccccc1)C(=O)N1CCC[C@H](N1)C(=O)OCC(C)(C)C2 (atropisomer, axis not shown) ?
# output 10 to 100 nM

# input Would you kindly share the measured IC50 for CCn1c(-c2cccnc2[C@H](C)OC)c2c3cc(ccc31)-c1cc(O)cc(c1)C[C@H](NC(=O)C1[C@H]3COC[C@@H]13)C(=O)N1CCC[C@H](N1)C(=O)OCC(C)(C)C2 (stereo partly shown) ?
# output 1000 to 10000 nM

---

- Tgt: KRAS G12C (Homo sapiens, UniProt P01116+P62937, G12C)
- Sequence (P01116 1-169 isoform P01116-2 G12C, one chain of several): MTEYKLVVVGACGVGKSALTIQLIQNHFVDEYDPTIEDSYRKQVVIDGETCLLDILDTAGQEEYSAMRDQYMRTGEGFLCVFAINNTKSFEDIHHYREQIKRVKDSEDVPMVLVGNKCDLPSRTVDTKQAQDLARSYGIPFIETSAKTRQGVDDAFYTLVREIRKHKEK
- Assay Procedure: Disruption of BRAF RBD interaction with Ras (FRET / MOA assay, with Cyclophilin A)
- Type: biochemical
- Measurement Conditions: KRAS G12C FRET data, IC50
Reported Property: IC50

Examples from the recorded data:
>>> readout_value("CCn1c(-c2cccnc2[C@H](C)OC)c2c3cc(ccc31)-c1cc(O)cc(c1)C[C@H](NC(=O)[C@H](C(C)C)N(C)C(=O)C1CCNCC1)C(=O)N1CCC[C@H](N1)C(=O)OCC(C)(C)C2")
"100 to 1000 nM"
>>> readout_value("CCn1c(-c2cccnc2[C@H](C)OC)c2c3cc(ccc31)-c1csc(n1)C[C@H](NC(=O)N1CCC[C@@H]1COC)C(=O)N1CCC[C@H](N1)C(=O)OCC(C)(C)C2 (atropisomer, axis not shown)")
"10 to 100 nM"
>>> readout_value("CCn1c(-c2cccnc2[C@H](C)OC)c2c3cc(ccc31)-c1cccc(c1)C[C@H](NC(=O)[C@H](C(C)C)N(C)C(=O)[C@H]1CCN(C(=O)CNC)C1)C(=O)N1CCC[C@H](N1)C(=O)OCC(C)(C)C2")
"100 to 1000 nM"

# input Would you kindly share the measured IC50 for CCn1c(-c2cnccc2COC)c2c3cc(ccc31)-c1cc(O)cc(c1)C[C@H](NC(=O)[C@H](C(C)C)N(C)C(=O)C1CCN(C)CC1)C(=O)N1CCC[C@H](N1)C(=O)OCC(C)(C)C2 ?
# output 100 to 1000 nM

---

- Tgt: KRAS WT (Homo sapiens, UniProt P01116+P62937)
- Sequence (P01116 1-169 isoform P01116-2 limits assumed): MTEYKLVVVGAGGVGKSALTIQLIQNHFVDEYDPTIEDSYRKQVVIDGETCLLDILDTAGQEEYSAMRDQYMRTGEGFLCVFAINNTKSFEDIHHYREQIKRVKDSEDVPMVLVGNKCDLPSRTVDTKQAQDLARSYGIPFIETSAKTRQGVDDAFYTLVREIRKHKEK
- Sequence (P62937 whole entry): as the sequence (P62937 whole entry) above
- Assay Procedure: Disruption of BRAF RBD interaction with Ras (FRET / MOA assay, with Cyclophilin A)
- Type: biochemical
- Measurement Conditions: KRAS WT; read-out: KRAS WT FRET data IC50
Readings of IC50 for the listed molecules

>>> readout_value("CCn1c(-c2ccccc2CCOC)c2c3cc(ccc31)-c1cc(O)cc(c1)C[C@H](NC(=O)[C@H](C(C)C)N(C)C(=O)C1CCN(C(=O)/C=C/CN(C)C)CC1)C(=O)N1CCC[C@H](N1)C(=O)OCC(C)(C)C2")
"1000 to 10000 nM"
>>> readout_value("C=CC(=O)N1C[C@H](C)[C@H](C(=O)N(C)[C@H](C(=O)N[C@H]2Cc3cc(O)cc(c3)-c3ccc4c(c3)c(c(-c3ccccc3CN(C)C)n4CC)CC(C)(C)COC(=O)[C@@H]3CCCN(N3)C2=O)C(C)C)C1")
"100 to 1000 nM"
>>> readout_value("CCn1c(-c2cccnc2[C@H](C)OC)c2c3cc(ccc31)-c1cccc(c1)C[C@H](NC(=O)[C@H](C(C)C)N1CC[C@]3(CCN(C(=O)C#C[C@]4(N(C)C)CCOC4)C3)C1=O)C(=O)N1CCC[C@H](N1)C(=O)OCC(C)(C)C2")
"1000 to 10000 nM"
>>> readout_value("CCn1c(-c2cccnc2COC)c2c3cc(ccc31)-c1cc(O)cc(c1)C[C@H](NC(=O)[C@H](C(C)C)N(C)C(=O)[C@H]1CCNC1)C(=O)N1CCC[C@H](N1)C(=O)OCC(C)(C)C2")
"100 to 1000 nM"
>>> readout_value("CCn1c(-c2cccnc2[C@H](C)OC)c2c3cc(ccc31)-c1csc(n1)C[C@H](NC(=O)[C@H](C(C)C)N(C)C(=O)N1CC[C@@H](O)C1)C(=O)N1CCC[C@H](N1)C(=O)OCC(C)(C)C2 (atropisomer, axis not shown)")
"100 to 1000 nM"

# input Would you kindly share the measured IC50 for CCn1c(-c2cc(C3CCN(C)CC3)cnc2[C@H](C)OC)c2c3cc(ccc31)-c1csc(n1)C[C@H](NC(=O)[C@H](C(C)C)N(C)C(=O)N1CCOCC1)C(=O)N1CCC[C@H](N1)C(=O)OCC(C)(C)C2 (atropisomer, axis not shown) ?
# output 10 to 100 nM

---

- Tgt: KRAS G13C (Homo sapiens, UniProt P01116+P62937, G13C)
- Sequence (P01116 1-169 isoform P01116-2 G13C): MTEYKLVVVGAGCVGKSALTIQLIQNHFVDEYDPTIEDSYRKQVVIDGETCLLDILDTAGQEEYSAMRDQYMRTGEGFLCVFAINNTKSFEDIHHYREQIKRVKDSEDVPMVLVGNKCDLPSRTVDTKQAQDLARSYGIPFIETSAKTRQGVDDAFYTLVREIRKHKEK
- Sequence (P62937 whole entry): as the sequence (P62937 whole entry) above
- Assay Procedure: Disruption of BRAF RBD interaction with Ras (FRET / MOA assay, with Cyclophilin A)
- Format: biochemical
- Measurement Conditions: read-out: KRAS G13C FRET data, IC50
Reported Property: IC50

>>> readout_value("CCn1c(-c2cccnc2[C@H](C)OC)c2c3cc(ccc31)-c1cc(O)cc(c1)C[C@H](NC(=O)[C@H](C(C)C)N(C)C(=O)[C@H]1CCN(CCO)C1)C(=O)N1CCC[C@H](N1)C(=O)OCC(C)(C)C2")
"10 to 100 nM"
>>> readout_value("CCn1c(-c2cccnc2[C@H](C)OC)c2c3cc(ccc31)-c1cc(O)cc(c1)C[C@H](NC(=O)[C@H](C(C)C)N(C)C(=O)[C@H]1CCN(C(=O)CN(C)C)C1)C(=O)N1CCC[C@H](N1)C(=O)OCC(C)(C)C2")
"10 to 100 nM"
>>> readout_value("CCn1c(-c2cccnc2[C@H](C)OC)c2c3cc(ccc31)-c1cc(O)cc(c1)C[C@H](NC(=O)[C@H](C(C)C)N(C)C(=O)C1CCC(C3CCCO3)O1)C(=O)N1CCC[C@H](N1)C(=O)OCC(C)(C)C2 (some centres unmarked)")
"10 to 100 nM"
>>> readout_value("CCn1c(-c2cccnc2[C@H](C)OC)c2c3cc(ccc31)-c1cc(O)cc(c1)C[C@H](NC(=O)[C@H](C(C)C)N(C)C(=O)C1CCc3ccccc3N1)C(=O)N1CCC[C@H](N1)C(=O)OCC(C)(C)C2 (some centres unmarked)")
"10 to 100 nM"
>>> readout_value("CCn1c(-c2cccnc2[C@H](C)OC)c2c3cc(ccc31)-c1csc(n1)C[C@H](NC(=O)[C@H](C(C)C)N(C)C(=O)N1CC3(CC(N(C)CCO)C3)C1)C(=O)N1CCC[C@H](N1)C(=O)OCC(C)(C)C2 (atropisomer, axis not shown)")
"100 to 1000 nM"

# input Request: IC50, test system KRAS G13C (Homo sapiens, UniProt P01116+P62937, G13C), entry CCn1c(-c2cccnc2[C@H](C)OC)c2c3cc(ccc31)-c1csc(n1)C[C@H](NC(=O)[C@@H](OC(=O)N1CC(N(C)C)C1)C(C)C)C(=O)N1CCC[C@H](N1)C(=O)OCC(C)(C)C2
# output 1000 to 10000 nM

# input Request: IC50, test system KRAS G13C (Homo sapiens, UniProt P01116+P62937, G13C), entry CO[C@@H](C)c1ncccc1-c1c2c3cc(ccc3n1C)-c1csc(n1)C[C@H](NC(=O)[C@H](C(C)C)N(C)C(C)=O)C(=O)N1CCC[C@H](N1)C(=O)OCC(C)(C)C2 (racemic)
# output > 10000 nM

# input Request: IC50, test system KRAS G13C (Homo sapiens, UniProt P01116+P62937, G13C), entry CCn1c(-c2cccnc2[C@H](C)OC)c2c3cc(ccc31)-c1csc(n1)C[C@H](NC(=O)[C@@H]1CCCO1)C(=O)N1CCC[C@H](N1)C(=O)OCC(C)(C)C2
# output 100 to 1000 nM
